System: MCF7
Experiment: In vitro potency of tomaymycin derivatives, WST-8 surviving fraction, MCF7
Format: cell-based
Details: Homo sapiens, 96 h; MCF7 cells, incubated 4 days at 37° C., WST-8 read at 450 nm
Measured IC50 by item

Example molecules with recorded IC50:
{"SMILES_ENTRY": "C/C=C1\\C[C@H]2C=Nc3cc(OCc4cc(COc5cc6c(cc5OC)C(=O)N5C/C(=C/C)C[C@H]5C=N6)cc(OC)c4)c(OC)cc3C(=O)N2C1", "IC50": "< 0.001 nM"}
{"SMILES_ENTRY": "C/C=C1\\C[C@H]2C=Nc3cc(OCCC(C)CCOc4cc5c(cc4OC)C(=O)N4C/C(=C/C)C[C@H]4C=N5)c(OC)cc3C(=O)N2C1", "IC50": "0.1 nM"}

With those in mind, consider the next molecule.
For C/C=C1\C[C@H]2C=Nc3cc(OCc4cccc(COc5cc6c(cc5OC)C(=O)N5C/C(=C/C)C[C@H]5C=N6)c4)c(OC)cc3C(=O)N2C1 , what is its reported IC50?
< 0.001 nM
